Recorded mass density, one value per entry.
measurement context: 358.15 K; 101.33 kPa; Liquid; Vibrating tube method
Reply with just the number (in kg/m3).

Need mass density of CCCCn1cc[n+](C)c1C.O=S(=O)([N-]S(=O)(=O)C(F)(F)F)C(F)(F)F , thanks.
1364.4

Find the recorded mass density belonging to CCCCCCOS(=O)(=O)[O-].CC[n+]1ccn(C)c1 [3-ethyl-1-methyl-1H-imidazolium hexyl sulfate] and report it.
1091.2

Which mass density value belongs to CCCC[N+]1(C)CCCC1.FC(F)(F)C(F)(F)[P-](F)(F)(F)(C(F)(F)C(F)(F)F)C(F)(F)C(F)(F)F ?
1520.4

Reported mass density, compound CCCC[N+]1(C)CCCC1.O=S(=O)([N-]S(=O)(=O)C(F)(F)F)C(F)(F)F : ____
1342.5

Dear colleague, I am looking for the recorded mass density of the following compound: COCC[N+]1(C)CCCC1.O=S(=O)([N-]S(=O)(=O)C(F)(F)F)C(F)(F)F
1398.6
